compounds and their reported viscosity
experimental_conditions: 303.15 K; 100 kPa; Liquid; Concentric cylinders viscometry
Hi! Could you send only the number? It should be in mPa·s, unit omitted.

// known answers, use as guide
| compound | viscosity [mPa·s] |
| --- | --- |
| CCC1CCCCC1 [ethylcyclohexane] | 0.745 |
| CCCCC1CCCCC1 [butylcyclohexane] | 1.109 |
| CC1CCCCC1 [methylcyclohexane] | 0.651 |

Switching to the query record.
Problem: Quick one: viscosity for CC(C)CC(C)(C)C [2,2,4-trimethylpentane] ?
Solution: 0.47

====

Reported surface tension liquid-gas by item:
experimental_conditions: 298.15 K, Drop volume
Entry rule: numbers only, all in mN/m.

Use the examples below as a reference point.
| compound | surface tension liquid-gas, mN/m |
| --- | --- |
| CCC1CCCCC1 [ethylcyclohexane] | 24.76 |
| CC(C)CC(C)(C)C [2,2,4-trimethylpentane] | 18.39 |
| CC1CCCCC1 [methylcyclohexane] | 23.02 |

Consider now this further compound.
Problem: Requested read-out: surface tension liquid-gas. Entry: CCCCC1CCCCC1 [butylcyclohexane]
Solution: 25.87

====

Below, each entry is listed with its recorded refractive index.
assay_overview: refractive index (Na D-line) (dimensionless)
experimental_conditions: 308.15 K; 100 kPa; Liquid
Please give the numeric answer without any surrounding text.

Below are worked cases with known answers.
| smiles_str | refractive index |
| --- | --- |
| CC(C)CC(C)(C)C | 1.3848 |
| CCCCC1CCCCC1 | 1.4333 |
| CCC1CCCCC1 | 1.4278 |

Let's switch to this molecule now.
Problem: Tell me the measured refractive index of CC1CCCCC1 , please.
Solution: 1.4168

====

experimental_conditions: 293.15 K; 100 kPa; Liquid; Vibrating tube method
readout_type: mass density (kg/m3)
// note: answer is a bare numeric in kg/m3

Problem: Name the recorded mass density for CC(C)CC(C)(C)C [2,2,4-trimethylpentane] .
Solution: 691.91

Problem: Continue with CC1CCCCC1 [methylcyclohexane]
Solution: 769.35

Problem: Here is the next compound: CCC1CCCCC1 [ethylcyclohexane]
Solution: 787.98

Problem: Repeat for the following compound: CCCCC1CCCCC1 [butylcyclohexane]
Solution: 799.37

====

Each entry below lists one item and its recorded viscosity value.
experimental_conditions: 333.15 K; 100 kPa; Liquid; Concentric cylinders viscometry
The reply should contain only the number, in mPa·s.

Problem: Entry CCC1CCCCC1 has what viscosity?
Solution: 0.541

Problem: For CCCCC1CCCCC1 then?
Solution: 0.749

Problem: Try CC1CCCCC1 next.
Solution: 0.476

Problem: Now the molecule CC(C)CC(C)(C)C
Solution: 0.371

====

experimental_conditions: 293.15 K, Drop volume
The entries below are paired with their reported surface tension liquid-gas.
Just the number in mN/m, nothing appended.

These solved cases illustrate the format of a correct answer.
| smiles_str | value_units | surface tension liquid-gas |
| --- | --- | --- |
| CCC1CCCCC1 | mN/m | 25.47 |
| CC1CCCCC1 | mN/m | 23.87 |
| CCCCC1CCCCC1 | mN/m | 26.81 |

Please turn your attention to the following entry.
Problem: I'd like to know its surface tension liquid-gas. The compound in question is CC(C)CC(C)(C)C
Solution: 18.94

====

experimental_conditions: 308.15 K; 100 kPa; Liquid; Vibrating tube method
Numbers after ± are expanded uncertainties.
readout_type: mass density

Example results:
| smiles_str | mass density |
| --- | --- |
| CCCCC1CCCCC1 | 788.12 ± 0.15 kg/m3 |
| CCC1CCCCC1 | 775.88 ± 0.15 kg/m3 |
| CC1CCCCC1 | 756.37 ± 0.15 kg/m3 |

Now look at this one.
Problem: I would be grateful if you could share the reported mass density for CC(C)CC(C)(C)C .
Solution: 679.51 ± 0.19 kg/m3

====

assay_overview: refractive index (Na D-line) (dimensionless)
experimental_conditions: 313.15 K; 100 kPa; Liquid
As shown below, each of these compounds has a reported refractive index value.
Just the number, please, no unit after it.

Problem: Please look up its refractive index: CC(C)CC(C)(C)C [2,2,4-trimethylpentane]
Solution: 1.3833

Problem: Same read-out for CC1CCCCC1 [methylcyclohexane] ?
Solution: 1.415

Problem: Similarly, CCCCC1CCCCC1 [butylcyclohexane] ?
Solution: 1.4314

Problem: Similarly, CCC1CCCCC1 [ethylcyclohexane] ?
Solution: 1.4259

====

assay_overview: refractive index (Na D-line) (dimensionless)
experimental_conditions: 303.15 K; 100 kPa; Liquid
readout_type: refractive index
The reply should be a number, written without any unit.

| smiles_str | readout_type | measured_result |
| --- | --- | --- |
| CC1CCCCC1 | refractive index | 1.419 |

Problem: // query refractive index value for entry CCC1CCCCC1
Solution: 1.4295

Problem: Would you kindly repeat that for CCCCC1CCCCC1 ?
Solution: 1.4355

Problem: Follow-up entry: CC(C)CC(C)(C)C
Solution: 1.3876

====

Some compounds, each annotated with its measured mass density.
experimental_conditions: 313.15 K; 100 kPa; Liquid; Vibrating tube method
Write the number in kg/m3 without appending the unit.

// known answers, use as guide
| smiles_str | value_units | mass density |
| --- | --- | --- |
| CC1CCCCC1 | kg/m3 | 752 |
| CC(C)CC(C)(C)C | kg/m3 | 675.32 |
| CCC1CCCCC1 | kg/m3 | 771.82 |

Problem: Which measured mass density value corresponds to CCCCC1CCCCC1 ?
Solution: 784.35

====

experimental_conditions: 293.15 K; 100 kPa; Liquid; Concentric cylinders viscometry
Numbers after ± are expanded uncertainties.
readout_type: viscosity
Please report the result as a number followed by the unit.

// worked examples, viscosity included
| smiles_str | viscosity |
| --- | --- |
| CCC1CCCCC1 | 0.848 ± 0.14 mPa·s |
| CCCCC1CCCCC1 | 1.304 ± 0.21 mPa·s |
| CC(C)CC(C)(C)C | 0.518 ± 0.083 mPa·s |

Turning to the following compound.
Problem: Quick check: viscosity of CC1CCCCC1 ?
Solution: 0.735 ± 0.12 mPa·s
